B1: Far upstream element-binding protein 2, residues 142 to 214; numbered along this chain, Q92945 (parent)
chain: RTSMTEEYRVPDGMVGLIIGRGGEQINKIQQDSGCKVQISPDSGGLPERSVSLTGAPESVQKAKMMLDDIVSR

variants of: B1; experiment: abundance fitness (aPCA) (normalised: wild type 0, dead -1); higher = more abundant; growth selection in yeast, the domain comes from the species named; conditions: Homo sapiens
Mark 1.0 for reported abundance fitness of -0.2 or greater; mark 0.0 for anything smaller.

Illustrative cases are given below, each with its answer.
# mutations, qualitative_label
measured = [
    ("V71M", 1.0),
    ("V37R", 0.0),
    ("K64G", 0.0),
]

State whether the measured abundance fitness reaches -0.2, counting equality as reaching it, for R73K 1.0

Could you please find out whether M66G has abundance fitness that meets -0.2 or exceeds it? 0.0

Record S52P ; criterion: abundance fitness no lower than -0.2. Met? 0.0

# check: abundance fitness of K62L is greater than or equal to -0.2 1.0

For this variant, is measured abundance fitness -0.2 or higher? P47D 1.0

Check the entry I29T : does abundance fitness equal or exceed -0.2? 0.0
